Where these numbers come from: the supplement of paper PMC11061612

Test system: SK-ES-1 (Ewing's Sarcoma);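 also: after 72 h of two-drug dosing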
Assay: Bliss excess, mean over the matrix (fraction); higher = more synergy
measure-name: Bliss excess
Give your answer as a number; write no unit.

>>> value_reported("COc1nnc2ccc(N3CCC(c4ccc(OCCN5CCN(C)C(=O)[C@H]5C)cc4)CC3)nn12 [AZD5153] + C=CCn1c(=O)c2cnc(Nc3ccc(N4CCN(C)CC4)cc3)nc2n1-c1cccc(C(C)(C)O)n1 [AZD1775] (first compound max 1 µM, partner max 1 µM)")
-0.0279

Request - read-out Bliss excess | tested on SK-ES-1 (Ewing's Sarcoma) | compound Cc1nc(Nc2ncc(C(=O)Nc3c(C)cccc3Cl)s2)cc(N2CCN(CCO)CC2)n1 [Dasatinib] + CC(=O)Nc1cccc(-n2c(=O)n(C3CC3)c(=O)c3c(Nc4ccc(I)cc4F)n(C)c(=O)c(C)c32)c1 [Trametinib] (first compound max 2 µM, 7x7, partner max 1 µM);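 also: after 72 h of two-drug dosing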
-0.0256

# iterate: Cc1cc2ncnn2cc1Nc1ncc2c(n1)n(C1CCOCC1)c(=O)n2C [AZD7648] + C[C@@H]1COCCN1C2=NC(=NC(=C2)C3(CC3)[S@](=N)(=O)C)C4=C5C=CNC5=NC=C4 [AZD6738] (first compound max 10 µM, 7x7, partner max 10 µM)
0.0046

# iterate: C[C@@H](c1ccc2nccn2c1)n1nnc2ncc(-c3cnn(C)c3)nc21 [Savolitinib] + CC1(C)CCC(CN2CCN(c3ccc(C(=O)NS(=O)(=O)c4ccc(NCC5CCOCC5)c([N+](=O)[O-])c4)c(Oc4cnc5[nH]ccc5c4)c3)CC2)=C(c2ccc(Cl)cc2)C1 [Venetoclax] (first compound max 1 µM, 7x7, partner max 1 µM)
-0.0545

# iterate: CN(CCO)CC[C@H](CSc1ccccc1)Nc1ccc(S(=O)(=O)NC(=O)c2ccc(N3CCC([C@@H](O)c4ccccc4-c4ccc(Cl)cc4)CC3)cc2)cc1S(=O)(=O)C(F)(F)F [AZD4320] + Cn1cnc2c(F)c(Nc3ccc(Br)cc3Cl)c(C(=O)NOCCO)cc21 [Selumetinib] (first compound max 1 µM, 7x7, partner max 3 µM)
-0.0095

# iterate: Cc1c2c(nn1C)CSCc1cc(n(C)n1)CSc1cc(c3ccccc3c1)OCCCc1c(C(=O)O)n(C)c3c-2c(Cl)ccc13 [AZD5991] + CN(C)CCCOc1ccc(-c2ccc3ncc4c(c3c2)n(C2CCOCC2)c(=O)n4C)cn1 [AZD0156] (first compound max 1 µM, 7x7, partner max 1 µM)
-0.004

# iterate: CN(CCO)CC[C@H](CSc1ccccc1)Nc1ccc(S(=O)(=O)NC(=O)c2ccc(N3CCC([C@@H](O)c4ccccc4-c4ccc(Cl)cc4)CC3)cc2)cc1S(=O)(=O)C(F)(F)F [AZD4320] + CCN(CCO)CCCOc1ccc2c(Nc3cc(CC(=O)Nc4cccc(F)c4)[nH]n3)ncnc2c1 [AZD2811] (first compound max 1 µM, 7x7, partner max 1 µM)
0.0156

# iterate: Cc1c2c(nn1C)CSCc1cc(n(C)n1)CSc1cc(c3ccccc3c1)OCCCc1c(C(=O)O)n(C)c3c-2c(Cl)ccc13 [AZD5991] + C1CN(CCC1(C(=O)N[C@@H](CCO)C2=CC=C(C=C2)Cl)N)C3=NC=NC4=C3C=CN4 [Capivasertib] (first compound max 1 µM, 7x7, partner max 3 µM)
0.0217
